Reference source: paper PMC11062922

# Tested on: GSK3A
# Parameters: species or system human, MV4-11 + K-562 + COLO205 + SK-N-BE2 + OVCAR-8
# experimental setup: read-out: apparent Kd; compound concentrations:100 nM and 1000 nM (sheet 'Samples'); n = 1
endpoint: potency estimated from few doses (nM)
Lab book: enter the figure in nM, no units written.

Here are 7 molecules together with their reported answers.
{"molecule": "Nc1n[nH]c2nnc(-c3ccccc3)c(-c3ccccc3)c12 [GW554060X]", "measurement units": "nM", "potency estimated from few doses": 424}
{"molecule": "O=C(Nc1n[nH]c2nc(-c3cccs3)c(Br)cc12)C1CC1", "measurement units": "nM", "potency estimated from few doses": 1290}
{"molecule": "O=C(Nc1n[nH]c2nc(-c3nccs3)c(Br)cc12)C1CCCC1", "measurement units": "nM", "potency estimated from few doses": 519}
{"molecule": "COc1cccc(C2=C(Nc3ccc(Cl)c(C(=O)O)c3)C(=O)NC2=O)c1", "measurement units": "nM", "potency estimated from few doses": 323}
{"molecule": "CC(C)N1CCC(n2cnc(-c3ccc(F)cc3)c2-c2ccnc(N)n2)CC1", "measurement units": "nM", "potency estimated from few doses": 359}
{"molecule": "Cn1cc(C2=C(c3c4n(c5ccccc35)CCN(C(N)=S)C4)C(=O)NC2=O)c2ccccc21", "measurement units": "nM", "potency estimated from few doses": 427}
{"molecule": "Cc1ccc2c(-c3ccncc3)c(-c3ccc(F)cc3)nn2c1.Cl [GW461484A]", "measurement units": "nM", "potency estimated from few doses": 434}

Okay, now this molecule:
[in] Given CCn1c(-c2nonc2N)nc2cncc(CNC3CCNCC3)c21 [SB-747651A] , state its recorded potency estimated from few doses.
[out] 1100

* * *

# System: GAK
# Design: species or system human, MV4-11 + K-562 + COLO205 + SK-N-BE2 + OVCAR-8
# experimental setup: read-out: apparent Kd; compound concentrations:100 nM and 1000 nM (sheet 'Samples'); n = 1
Checkbox rule: potency estimated from few doses lower than 300 nM = 1; potency estimated from few doses not lower than 300 nM = 0.

{"compound": "Cc1occc1-c1nc(N)c(OC[C@@H](N)Cc2c[nH]c3ccccc23)cc1-c1cc2c(C)n[nH]c2cn1 [GSK1660450B]", "label class": 1}
{"compound": "CC(C)Oc1ccc2c(-c3ccnc(Nc4ccc(N5CCN(C)CC5)cc4)n3)cnn2n1 [GW696155X]", "label class": 0}
{"compound": "Cc1n[nH]c2ccc(-c3cc(OC[C@@H](N)Cc4ccccc4)cnc3-c3ccoc3)cc12.Cc1n[nH]c2ccc(-c3cc(OC[C@@H](N)Cc4ccccc4)cnc3-c3ccoc3)cc12.O=C(O)C(F)(F)F.O=C(O)C(F)(F)F [GSK507358A]", "label class": 0}

[in] is_below(potency estimated from few doses, 300 nM) for Cc1ccc2c(-c3ccncc3)c(-c3ccc(F)cc3)nn2c1.Cl [GW461484A] ?
[out] 0

[in] Queued: CNC(=O)c1ccccc1Nc1nc(Nc2ccc(N3CCOCC3)cc2)ncc1Cl.Cl [GSK1576028A]
[out] 1

[in] Queued: CN(C)CC(O)COc1ccc(Nc2nccc(-c3cnn4nc(N5CCOCC5)ccc34)n2)cc1 (stereo not drawn) [GW767488X]
[out] 0

* * *

# Test system: CDK16
# Set-up: species or system human, MV4-11 + K-562 + COLO205 + SK-N-BE2 + OVCAR-8
# experimental setup: read-out: apparent Kd; compound concentrations:100 nM and 1000 nM (sheet 'Samples'); n = 1
endpoint: potency estimated from few doses (nM)
Lab book: enter the figure in nM, no units written.

Here are 4 compounds together with their reported answers.
{"compound": "N#Cc1cccc(Nc2nccc(-c3cnn4ncccc34)n2)c1 [GW778894X]", "potency estimated from few doses (nM)": 13}
{"compound": "COc1ccc(F)cc1C(=O)c1cnc(NC2CCN(S(C)(=O)=O)CC2)nc1N", "potency estimated from few doses (nM)": 74.1}
{"compound": "CC(C)(CO)CNC(=O)c1ccc2c(c1)/C(=N/Nc1ccc(S(N)(=O)=O)cc1)C(=O)N2 [GW301784X]", "potency estimated from few doses (nM)": 53}
{"compound": "NS(=O)(=O)c1ccc(Nc2ncc(-c3ccccc3)o2)cc1 [GW572399X]", "potency estimated from few doses (nM)": 1760}

Okay, now this compound:
[in] Given CC(C)Oc1ccc2c(-c3ccnc(Nc4ccc(N5CCN(C)CC5)cc4)n3)cnn2n1 [GW696155X] , state its recorded potency estimated from few doses.
[out] 1910

* * *

A collection of compounds and their measured potency estimated from few doses
# System: MAPKAPK2
# Parameters: species or system human, MV4-11 + K-562 + COLO205 + SK-N-BE2 + OVCAR-8
# experimental setup: read-out: apparent Kd; compound concentrations:100 nM and 1000 nM (sheet 'Samples'); n = 1
Lab book: enter the figure in nM, no units written.

{"smiles str": "Cl.Cn1c(=O)c(Oc2ccccc2F)cc2cnc(NC3CCOCC3)nc21", "potency estimated from few doses (nM)": 73.7}
{"smiles str": "Fc1ccc(-c2ncn(C3CCNCC3)c2-c2ccnc(Oc3ccc(-c4ccccc4)cc3)n2)cc1", "potency estimated from few doses (nM)": 116}
{"smiles str": "Cl.Nc1nccc(-c2c(-c3ccc(F)cc3)ncn2C2CCNCC2)n1", "potency estimated from few doses (nM)": 3.23}

[in] Given "CCN1CCN(Cc2ccc(C(=O)Nc3ccc(C)c(Oc4ccc5c(c4)CC(=O)N5)c3)cc2C(F)(F)F)CC1.Cl.Cl" , state its recorded potency estimated from few doses.
[out] 858

* * *

# Test system: MARK2
# Set-up: species or system human, MV4-11 + K-562 + COLO205 + SK-N-BE2 + OVCAR-8
# experimental setup: read-out: apparent Kd; compound concentrations:100 nM and 1000 nM (sheet 'Samples'); n = 1
endpoint: potency estimated from few doses

{"molecule": "CC(C)N1CCC(n2cnc(-c3ccc(F)cc3)c2-c2ccnc(N)n2)CC1 [SB-223132]", "assay system": "MARK2", "potency estimated from few doses": "1570 nM"}
{"molecule": "CCn1c(-c2nonc2N)nc2c(C#CC(C)(C)O)ncc(OC[C@@H]3CCCN3)c21.O=C(O)C(F)(F)F [GSK614526A]", "assay system": "MARK2", "potency estimated from few doses": "762 nM"}
{"molecule": "O=C(Nc1n[nH]c2nc(-c3ccccc3O)ccc12)C1CC1 [SB-711880]", "assay system": "MARK2", "potency estimated from few doses": "2380 nM"}

[in] What potency estimated from few doses appears in the records for this molecule with MARK2? CCn1c(-c2nonc2N)nc2c(C#CC(C)(C)O)nc(O[C@@H](CN)c3ccccc3)cc21.O=C(O)C(F)(F)F [GSK1007102B]
[out] 173 nM

[in] Queued: Nc1nccc(-c2ccc3c(N)n[nH]c3c2)n1 [GSK1034945A]
[out] 1440 nM

[in] Queued: C[C@@H]1CCN(C(=O)CC#N)C[C@@H]1N(C)c1ncnc2[nH]ccc12 [PFE-PKIS_25]
[out] 1730 nM

* * *

# System: CSNK1D;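 further: competition pulldown with Kinobeads ε in cell lysates, inhibitor preincubated 45 min at 4 °C, bound kinases quantified by LC–MS/MS against DMSO control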
# Set-up: species or system human, MV4-11 + K-562 + COLO205 + SK-N-BE2 + OVCAR-8
# experimental setup: compound concentrations:0.3nM, 1nM, 3nM, 10nM, 30nM, 100nM, 300nM, 1000nM,R2:0.90408083948088502,slope:1.4813297755061099,EC50 Standard Error, by the legend:Standard error of the EC50 estimation as provided by the drc package.
endpoint: EC50 (nM)
Lab book: enter the figure in nM, no units written.

[in] What EC50 appears in the records for this compound with CSNK1D? "Cl.NCc1ccc(-c2nc(-c3ccc(Cl)c(O)c3)c(-c3ccncc3)[nH]2)cc1"
[out] 300

* * *

# Test system: PRKD2
# Set-up: species or system human, MV4-11 + K-562 + COLO205 + SK-N-BE2 + OVCAR-8
# experimental setup: read-out: apparent Kd; compound concentrations:100 nM and 1000 nM (sheet 'Samples'); n = 1
A collection of molecules and their measured potency estimated from few doses
Lab book: enter the figure in nM, no units written.

[in] Given Cc1cccc(-c2nc(Nc3ccncc3)c3sccc3n2)n1 [GW869641X] , state its recorded potency estimated from few doses.
[out] 1.4

[in] Queued: Cc1n[nH]c2ccc(-c3cc(OC[C@@H](N)Cc4ccccc4)cnc3-c3ccoc3)cc12.Cc1n[nH]c2ccc(-c3cc(OC[C@@H](N)Cc4ccccc4)cnc3-c3ccoc3)cc12.O=C(O)C(F)(F)F.O=C(O)C(F)(F)F [GSK507358A]
[out] 690

[in] Queued: "COc1cccc(C2=C(Nc3cccc(C(=O)O)c3)C(=O)NC2=O)c1"
[out] 1720
